Measured target: human EGFR exon 20 insertion ASV (V769_D770insASV) (Homo sapiens, UniProt P00533, INS769ASV)
Sequence (P00533 with tags, fused parts or gaps INS769ASV): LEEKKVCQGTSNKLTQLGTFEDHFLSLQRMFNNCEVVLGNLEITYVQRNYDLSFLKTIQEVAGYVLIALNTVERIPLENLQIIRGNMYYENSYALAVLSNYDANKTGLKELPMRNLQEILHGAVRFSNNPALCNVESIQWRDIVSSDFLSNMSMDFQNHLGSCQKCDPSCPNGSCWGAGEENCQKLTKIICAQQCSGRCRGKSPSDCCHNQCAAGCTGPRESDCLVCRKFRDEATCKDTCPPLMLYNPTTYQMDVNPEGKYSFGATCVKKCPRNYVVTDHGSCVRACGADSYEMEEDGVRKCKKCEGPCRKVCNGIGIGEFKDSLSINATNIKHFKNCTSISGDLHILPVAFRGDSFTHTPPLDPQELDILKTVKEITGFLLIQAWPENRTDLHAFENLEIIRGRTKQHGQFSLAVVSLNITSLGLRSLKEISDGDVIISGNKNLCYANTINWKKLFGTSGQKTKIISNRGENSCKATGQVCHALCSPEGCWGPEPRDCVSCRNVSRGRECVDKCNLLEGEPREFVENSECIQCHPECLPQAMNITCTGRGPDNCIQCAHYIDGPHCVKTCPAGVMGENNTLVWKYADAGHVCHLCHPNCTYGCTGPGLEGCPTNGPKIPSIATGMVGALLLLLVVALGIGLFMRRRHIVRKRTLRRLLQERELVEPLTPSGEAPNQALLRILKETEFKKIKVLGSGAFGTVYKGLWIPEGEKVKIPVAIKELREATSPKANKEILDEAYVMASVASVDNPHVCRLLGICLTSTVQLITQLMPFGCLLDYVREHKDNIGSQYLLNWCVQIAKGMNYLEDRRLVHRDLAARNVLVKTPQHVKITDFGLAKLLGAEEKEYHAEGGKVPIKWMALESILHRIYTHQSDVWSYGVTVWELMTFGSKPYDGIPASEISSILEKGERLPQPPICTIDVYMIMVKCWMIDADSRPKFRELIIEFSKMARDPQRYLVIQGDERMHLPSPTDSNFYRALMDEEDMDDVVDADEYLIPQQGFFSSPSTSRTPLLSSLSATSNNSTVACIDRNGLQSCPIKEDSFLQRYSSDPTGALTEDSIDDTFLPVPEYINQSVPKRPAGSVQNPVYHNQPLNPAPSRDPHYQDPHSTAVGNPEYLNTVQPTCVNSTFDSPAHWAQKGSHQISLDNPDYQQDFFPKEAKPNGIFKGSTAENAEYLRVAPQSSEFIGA
Experiment description: Ba/F3-EGFR-Exon20-ASV cell anti-proliferative assay (CellTiter 96 MTS, 72 h)
Assay conditions: Ba/F3-EGFR-Exon20-ASV cells
Parameter: IC50

Worked cases, answers included:
- [2H]C([2H])([2H])N(CCN(C)c1cc(OC)c(Nc2ncc(Cl)c(-c3cn4c5c(cccc35)OCC4)n2)cc1NC(=O)C=C)C([2H])([2H])[2H]: < 100 nM
- C=CC(=O)Nc1cc(Nc2ncc(Cl)c(-c3nn4c5c(cccc35)OCC4)n2)c(OC)cc1N(C)CCN(C)C: < 100 nM
- C=CC(=O)Nc1cc(Nc2ncc(Cl)c(-c3cn4c5c(cccc35)OCC4)n2)c(OC)cc1N(C)C1CCN(C)C1 (stereo not shown): 100 to 500 nM
- C=CC(=O)Nc1cc(Nc2ncc(C(CC)OC)c(-c3cn4c5c(cccc35)CCC4)n2)c(OC)cc1N(C)CCN(C)C (stereo not shown): 100 to 500 nM
- C=CC(=O)Nc1cc(Nc2ncc(C(=O)NC)c(-c3cn4c5c(cccc35)CCC4)n2)c(OC)cc1N(C)CCN(C)C: 100 to 500 nM
- C=CC(=O)Nc1cc(Nc2ncc(C#N)c(-c3cn4c5c(cccc35)OCC4)n2)c(OC)cc1N1CC(N(C)C)C1: 100 to 500 nM

Continue with the next molecule.
Recorded IC50 (molecule "C#Cc1cnc(Nc2cc(NC(=O)C=C)c(N(C)CCN(C)C)cc2OC)nc1-c1cn2c3c(cccc13)CCC2" ): < 100 nM

FYI, the data here is from patent US20170166598A1.
